# Protocol description: Uninfected Calu-3 48 h Cell-Titer Glo cytotoxicity counter screen
# Measurement conditions: human, uninfected Calu-3 cells, cytotoxicity CC50, uninfected Calu-3, geomean
Attribute measured: CC50 at 48 h (µM)
Answer with a number only, understood to be in µM.

(Q) Which CC50 at 48 h is listed for COc1ccc(C[C@H](N)C(=O)N[C@H]2[C@@H](O)[C@H](n3cnc4c(N(C)C)ncnc43)O[C@@H]2CO)cc1 ?
(A) 3.95

---

# Protocol description: Pharmacokinetic studies in Syrian hamsters, PO
# Type: in vivo
# Measurement conditions: male, Syrian, hamster, plasma; 500 mg/kg PO, 10%DMSO/90% Corn Oil
# Method: Pharmacokinetic studies were conducted at Scripps Research Institute’s Animal Models Core in accordance with IACUC guidelines (IACUC Protocol #09-0004-5). Eight-week-old male Syrian Hamsters (Charles River; three per group) were dosed PO as indicated for each compound and formulation. Plasma concentration of each test article was monitored up to 48 h. […]
Where a name gives a salt, the structure may show the parent alone.
Attribute measured: half-life
Note to self: number, then unit, no commentary.

(Q) Which half-life is listed for Cc1c(O)cccc1C(=O)N[C@@H](CSc1ccccc1)[C@H](O)CN1C[C@H]2CCCC[C@H]2C[C@H]1C(=O)NC(C)(C)C [Nelfinavir mesylate] ?
(A) 4.02 h

---

Let's look at some compounds and their measured EC50.
# Test system: SARS-CoV-2
# Protocol description: microbe, parasite or virus in culture
# Assay type: cell-based
# Measurement conditions: Severe acute respiratory syndrome coronavirus 2, Calu-3, geometric mean of replicates; read-out: Calu-3 CoV-2 EC50 GeoMean
Structures can show the parent of a compound that is named as a salt.
Answer with a number only, understood to be in µM.

Reference set (2 entries):
>>> result_number("O=C(Nc1ccc(Cl)c(S(=O)(=O)N2CCNCC2)c1O)Nc1cccc(F)c1Cl [Elubrixin tosylate]")
6.91
>>> result_number("O=c1[nH]c2ccc(C(F)(F)F)cc2c(-c2cc(Cl)ccc2O)c1CCO")
5.14

Attention now shifts to the item below.
(Q) Which EC50 is listed for N=C(N)c1ccc2cc(OC(=O)c3ccc(CNC(=O)CCCC(=O)O)o3)ccc2c1 ?
(A) 0.657

---

Let's look at some molecules and their measured CC50.
# Tested on: HeLa-ACE2 cells
# Protocol description: Uninfected HeLa-ACE2 24 h live/dead cytotoxicity counter screen
# Type: cell-based, human
# Measurement conditions: read-out: HeLa-ACE2 uninfected cytotoxicity CC50 GeoMean

>>> result("Cc1cccc(/C=N/Nc2cc(N3CCOCC3)nc(OCCc3ccccn3)n2)c1 [Apilimod - control]")
"> 11.5 µM"

(Q) Which CC50 is listed for Cc1cccc(/C=N/Nc2cc(N3CCOCC3)nc(OCCc3ccccn3)n2)c1 [Apilimod] ?
(A) > 27.8 µM

---

Let's look at some compounds and their measured CC50 at 72 h.
# Protocol description: HepG2 72 h CellTiter-Glo cytotoxicity
# Measurement conditions: human, HepG2 cells
Counter-ions that a name gives are not always drawn.
Answer with a number only, understood to be in nM.

Reference set (3 entries):
>>> result_number("CCN(CCO)CCCC(C)Nc1ccnc2cc(Cl)ccc12 (stereo not shown) [Hydroxychloroquine sulfate]")
3620
>>> result_number("COc1ccc2cc1Oc1ccc(cc1)C[C@H]1c3cc(c(OC)cc3CCN1C)Oc1c(OC)c(OC)cc3c1[C@H](C2)N(C)CC3")
2280
>>> result_number("OC(CNCC(O)C1CCc2cc(F)ccc2O1)C1CCc2cc(F)ccc2O1 (stereo not shown) [Nebivolol HCl]")
7620

Attention now shifts to the item below.
(Q) Which CC50 at 72 h is listed for COc1ccc(C[C@H](N)C(=O)N[C@H]2[C@@H](O)[C@H](n3cnc4c(N(C)C)ncnc43)O[C@@H]2CO)cc1 [Puromycin - cytotoxicity control] ?
(A) 1080

---

# Test system: Calu-3 cells
# Protocol description: cells
# Measurement conditions: Homo sapiens, Calu-3, 48 h, read-out: Calu-3 cell count Sinf Average (%)
Structures can show the parent of a compound that is named as a salt.
Attribute measured: Emax (%)
Answer with a number only, understood to be in %.

>>> result_number("CCOc1ccc(Cc2nc3cc(N(C)S(=O)(=O)c4cccs4)ccc3n2CC2CCCCC2)nc1 [AZ-11713908]")
100
>>> result_number("O=c1[nH]ccc2cc(OC3CCNCC3)ccc12 [SAR-407899]")
97
>>> result_number("O=c1[nH]c2ccc(C(F)(F)F)cc2c(-c2cc(Cl)ccc2O)c1CCO [BMS-223131]")
100
>>> result_number("O[C@@H]1CO[C@H]2[C@@H]1OC[C@H]2Oc1nc2nc(-c3ccc(-c4ccccc4)cc3)c(Cl)cc2[nH]1 [MK-8722]")
100
>>> result_number("CCCCCC[C@H]1C(=O)O[C@H](C)[C@H](NC(=O)c2cccc(NC=O)c2O)C(=O)O[C@@H](C)[C@@H]1OC(=O)CC(C)C [Antimycin A]")
48
>>> result_number("N=C(N)Nc1ccc(C(=O)Oc2ccc(S(N)(=O)=O)cc2)cc1 [Ono-3307]")
99

(Q) Which Emax is listed for CC(=O)N1C[C@H](O)C[C@H]1C(=O)N[C@@H](CCCNC(=N)N)C(=O)c1nc2ccccc2s1 [RWJ-56423] ?
(A) 100

(Q) Which Emax is listed for N=C(N)c1ccc2cc(OC(=O)c3ccc(CNC(=O)CCCC(=O)O)o3)ccc2c1 [TO-195] ?
(A) 84

(Q) Which Emax is listed for NC(N)=Nc1ncc(Cl)c2ccc(-c3cccc(C(=O)O)c3)cc12 [UK-356202] ?
(A) 98

(Q) Which Emax is listed for CN(C)C(C(=O)Nc1ccc2c(=O)[nH]ccc2c1)c1ccsc1 (stereo not drawn) [Verosudil] ?
(A) 79

(Q) Which Emax is listed for O=C(Nc1ccc(Cl)c(S(=O)(=O)N2CCNCC2)c1O)Nc1cccc(F)c1Cl [Elubrixin tosylate] ?
(A) 67

(Q) Which Emax is listed for CSc1ccc(CN2CCCC(Nc3ccc4[nH]ncc4c3)C2)cc1 (stereo not drawn) [INS-117548] ?
(A) 55

(Q) Which Emax is listed for CC(C)(C)c1ccc(CSc2cnn(C(C)(C)C)c(=O)c2Cl)cc1 [Pyridaben] ?
(A) 47

(Q) Which Emax is listed for CC/C(=C(/c1ccc(/C=C/C(=O)O)cc1)c1ccc2[nH]ncc2c1)c1ccc(F)cc1Cl [ARN-810] ?
(A) 79

(Q) Which Emax is listed for CC(=N)N1CCC(Oc2ccc(N(Cc3ccc4ccc(C(=N)N)cc4c3)S(=O)(=O)CC(=O)O)cc2)CC1 [YM 60828] ?
(A) 100

---

# System: SARS-CoV-2
# Protocol description: microbe, parasite or virus in culture
# Type: cell-based
# Measurement conditions: Severe acute respiratory syndrome coronavirus 2, HeLa-ACE2, HeLa-ACE2, geomean; read-out: SARS-CoV-2 EC50
Attribute measured: pEC50
Recall that pEC50 is obtained by taking minus log10 of the concentration measured in molar.

>>> result_number("Cc1cccc(/C=N/Nc2cc(N3CCOCC3)nc(OCCc3ccccn3)n2)c1")
7.96

(Q) Which pEC50 is listed for COc1ccc(C[C@H](N)C(=O)N[C@H]2[C@@H](O)[C@H](n3cnc4c(N(C)C)ncnc43)O[C@@H]2CO)cc1 ?
(A) 6.32

---

# Test system: SARS-CoV-2
# Protocol description: microbe, parasite or virus in culture
# Format: cell-based
# Measurement conditions: detail block; read-out: HeLa-ACE2 CoV-2 EC50 GeoMean
Attribute measured: EC50 (nM)
Answer with a number only, understood to be in nM.

(Q) Which EC50 is listed for CN(C)CC1=C[CH]([Fe][CH]2C=CC=C2)C=C1CNc1ccnc2cc(Cl)ccc12 (stereo not shown) ?
(A) 1310

---

# Tested on: HeLa-ACE2 cells
# Protocol description: Uninfected HeLa-ACE2 24 h live/dead cytotoxicity counter screen
# Format: cell-based, human
# Measurement conditions: curve-fit effect at infinite concentration, average
Attribute measured: HeLa-ACE2 uninfected cytotoxicity Sinf Average

>>> result("CCN(CC)CCCNc1nccc2c(C)c3[nH]c4ccc(O)cc4c3c(C)c12")
"-98%"
>>> result("COCc1c(C(C)C)nc(C(C)C)c(/C=C/[C@@H](O)C[C@@H](O)CC(=O)O)c1-c1ccc(F)cc1 [Cerivastatin sodium]")
"-74%"
>>> result("COc1ccc(C[C@H]2NC[C@H](O)[C@H]2OC(C)=O)cc1")
"-98%"

Attention now shifts to the item below.
(Q) Which HeLa-ACE2 uninfected cytotoxicity Sinf Average is listed for CCCCCCCC/C=C/CCCCCCCC(=O)OC[C@H]1O[C@@H](n2ccc(N)nc2=O)C(F)(F)[C@@H]1O [Gemcitabine elaidate] ?
(A) -53%

---

Let's look at some compounds and their measured CC50 at 48 h.
# Protocol description: in vitro
# Measurement conditions: human, Calu-3 uninfected cytotoxicity CC50 GeoMean

Reference set (2 entries):
>>> result("CCOC(=O)[C@@H]1O[C@H]1C(=O)N[C@@H](CC(C)C)C(=O)N1CCN(Cc2ccc(OC)c(OC)c2OC)CC1 [NCO 700]")
"> 29.9 µM"
>>> result("Nc1ncnc2c1nc(Cl)n2[C@@H]1O[C@H](CO)[C@@H](O)[C@H]1O [8-Chloroadenosine]")
"> 27.7 µM"

(Q) Which CC50 at 48 h is listed for CNC(=O)n1ccc2cc(Oc3ccnc(NC(=O)c4ccc(C5CCN(CCO)CC5)cc4)c3)c(OCCOC)cc21 [E-7090] ?
(A) 15 µM

(Q) Which CC50 at 48 h is listed for N#Cc1ccc2c(c1)[C@H]1CN(CCCCNC(=O)c3ccc(-c4ccccc4)cc3)C[C@@H]1CO2 [S-33084] ?
(A) > 22.8 µM

(Q) Which CC50 at 48 h is listed for CCCCC1CCc2cc(O)cc3c(CCN4CCN(c5cc(C)ccn5)CC4)c(C)n1c23 (centres unmarked) [KC 11404] ?
(A) 12.8 µM

(Q) Which CC50 at 48 h is listed for CC(C)Oc1ccc(-c2nc(-c3cccc4c3CC[C@@H]4NCCO)no2)cc1C#N [Ozanimod] ?
(A) 13.3 µM

(Q) Which CC50 at 48 h is listed for Cn1c(C#N)ccc1-c1ccc2c(c1)C(C)(C)OC(=S)N2 [Tanaproget] ?
(A) > 19.3 µM

(Q) Which CC50 at 48 h is listed for O=C(CCCN1CCN(c2ccc(F)cc2)CC1)NC1c2ccccc2CSc2ccccc21 (centres unmarked) [Monatepil] ?
(A) > 29.9 µM

(Q) Which CC50 at 48 h is listed for CC(C)C(=O)OC[C@H]1O[C@@H](n2ccc(NO)nc2=O)[C@H](O)[C@@H]1O [MK-4482] ?
(A) > 29.9 µM

// provenance: paper PMC8175350
